Each entry below lists one item and its recorded speed of sound value.
Settings: 298.15 K; 101.33 kPa; Liquid; Linear variable-path acoustic interferometer
Report only the number, with the unit m/s understood.

Worked cases, speed of sound given:
| compound | speed of sound, m/s |
| --- | --- |
| CC(=O)[O-].CC[NH2+]CC [diethylammonium acetate] | 1608 |
| CC[NH+](CC)CC.O=S(=O)([O-])O [triethylammonium hydrogen sulfate] | 1874 |
| CC(=O)O.CCN(CC)CC [triethylammonium acetate] | 1840 |
| CN1CCCC1=O [N-methylpyrrolidone] | 1552 |

stdin: Given the compound CC[NH2+]CC.O=S(=O)([O-])O [diethylammonium hydrogen sulfate] , what is its reported speed of sound?
stdout: 1432
